Provenance of the data: patent US8455497B2

# System: EP13 multi protease inhibitor resistant virus
# Assay Info: Anti-viral activity against resistant virus EP13 in MT4 cells
# Format: cell-based, HIV-1
# Particulars: read-out: EP13 mutant IC50; EP13 multi protease inhibitor resistant virus, MT4 cells
pIC50: −log10 of the molar value.
Readout Type: pIC50

Give recorded pIC50 with EP13 multi protease inhibitor resistant virus for the following compound: CC(C)CN(C[C@@H](O)[C@H](Cc1ccc(OCCCc2ccccc2)cc1)NC(=O)O[C@H]1CO[C@H]2OCC[C@H]21)S(=O)(=O)c1ccc2c(c1)OCO2 [Compound 353]
> 9.00

* * *

List of pIC50 values.
# Tested on: HIV-1 (strain IIIB)
# Assay Info: Antiviral activity assay in MT4 cells (propidium iodide based)
# Format: cell-based
# Particulars: Human immunodeficiency virus 1, IIIB; wild type HIV-1 virus, MT4 cells; read-out: Wildtype virus - IC50
pIC50: −log10 of the molar value.

- Structure Smiles String: "CNC(=O)OCCCOc1ccc(C[C@H](NC(=O)O[C@H]2CO[C@H]3OCC[C@H]32)[C@H](O)CN(CC(C)C)S(=O)(=O)c2ccc3c(c2)OCO3)cc1"
  pIC50: "8.00 to 9.00"

Now, please, on to the next compound.
// lookup pIC50 | system=HIV-1 (strain IIIB) | key= CSc1ccc(COc2ccc(C[C@H](NC(=O)O[C@H]3CO[C@H]4OCC[C@H]43)[C@H](O)CN(CC(C)C)S(=O)(=O)c3ccc4c(c3)OCO4)cc2)cc1
8.00 to 9.00

* * *

# Tested on: HIV-1 (strain IIIB)
# Assay Info: Antiviral activity assay in MT4 cells (propidium iodide based)
# Type: cell-based
# Particulars: Human immunodeficiency virus 1, IIIB; wild type HIV-1 virus, MT4 cells; read-out: Wildtype virus - IC50
pIC50: −log10 of the molar value.
Readout Type: pIC50

Use the examples below as a reference point.
- Structure Smiles String: "CC(C)CN(C[C@@H](O)[C@H](Cc1ccc(OCc2ccccc2)cc1)NC(=O)O[C@H]1CO[C@H]2OCC[C@H]21)S(=O)(=O)c1ccc2c(c1)OC(F)(F)O2"
  Readout Type: "pIC50"
  Measured: "7.00 to 8.00"
- Structure Smiles String: "Cc1cccc(C)c1OCC(=O)N[C@@H](Cc1ccc(OS(=O)(=O)c2ccc3c(c2)OCO3)cc1)[C@H](O)CN(CC(C)C)S(=O)(=O)c1ccc2c(c1)OCO2"
  Readout Type: "pIC50"
  Measured: "7.00 to 8.00"

Now take the following molecule into account.
Param item = Cc1cccc(C)c1OCC(=O)N[C@@H](Cc1ccc(OCc2ccccc2)cc1)[C@H](O)CN(CC(C)C)S(=O)(=O)c1ccc2c(c1)OCO2 ; retrieve measured pIC50.
7.00 to 8.00
